Measured IC50 values are reported for all entries that follow.
Target: Phosphatidylinositol 4,5-bisphosphate 3-kinase catalytic subunit gamma isoform (Homo sapiens, UniProt P48736)
Sequence (P48736 whole entry, canonical isoform): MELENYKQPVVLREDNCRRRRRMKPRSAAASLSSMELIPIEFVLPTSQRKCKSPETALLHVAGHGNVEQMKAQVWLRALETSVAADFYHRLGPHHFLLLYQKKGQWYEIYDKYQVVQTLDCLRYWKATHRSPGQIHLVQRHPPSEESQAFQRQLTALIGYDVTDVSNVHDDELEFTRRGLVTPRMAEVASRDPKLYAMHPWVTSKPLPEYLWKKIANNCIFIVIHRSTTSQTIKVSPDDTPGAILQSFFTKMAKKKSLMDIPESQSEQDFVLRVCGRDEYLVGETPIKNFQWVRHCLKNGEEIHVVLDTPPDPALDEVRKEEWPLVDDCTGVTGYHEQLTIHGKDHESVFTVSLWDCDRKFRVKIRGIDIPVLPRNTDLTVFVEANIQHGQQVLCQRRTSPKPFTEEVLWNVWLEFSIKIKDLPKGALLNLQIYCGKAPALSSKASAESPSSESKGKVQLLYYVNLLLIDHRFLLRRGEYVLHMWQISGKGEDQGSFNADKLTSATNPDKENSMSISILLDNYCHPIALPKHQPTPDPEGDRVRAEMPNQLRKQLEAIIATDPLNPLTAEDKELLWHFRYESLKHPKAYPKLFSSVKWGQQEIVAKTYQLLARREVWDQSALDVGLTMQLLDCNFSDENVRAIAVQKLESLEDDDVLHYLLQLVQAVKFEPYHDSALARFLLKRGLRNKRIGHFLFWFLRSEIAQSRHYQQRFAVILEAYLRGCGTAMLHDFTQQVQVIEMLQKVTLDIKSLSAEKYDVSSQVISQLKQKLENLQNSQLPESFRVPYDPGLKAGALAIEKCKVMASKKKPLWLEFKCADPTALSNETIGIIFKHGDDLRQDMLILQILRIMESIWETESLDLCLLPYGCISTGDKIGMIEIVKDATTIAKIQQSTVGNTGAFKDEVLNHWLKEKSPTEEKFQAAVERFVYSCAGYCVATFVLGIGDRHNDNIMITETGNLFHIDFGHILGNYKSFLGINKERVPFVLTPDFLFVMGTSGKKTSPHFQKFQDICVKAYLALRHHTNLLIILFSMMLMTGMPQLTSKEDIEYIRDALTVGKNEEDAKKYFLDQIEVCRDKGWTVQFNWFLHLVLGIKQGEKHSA
Test: Inhibition of PI3Kgamma in human HL60 cell lysate by kinobead assay
Quick reminder: number only, in nM, skip the unit.

CN1CCN(C(=O)CNC(=O)Nc2nc3ccc(-c4cncc(S(=O)(=O)NC(C)(C)C)c4)cn3n2)CC1    2.51

Reported IC50, compound `Cc1noc(C)c1CCNC(=O)Nc1nc2ccc(-c3cncc(S(=O)(=O)NC(C)(C)C)c3)cn2n1` : ____
25.1

Reported IC50, compound `CC(C)(C)NS(=O)(=O)c1cncc(-c2ccc3nc(NC(=O)NCCc4ccccc4)nn3c2)c1` : ____
31.6
